experimental_system: Peroxisome proliferator-activated receptor delta (Homo sapiens, UniProt Q03181)
Sequence (Q03181 whole entry): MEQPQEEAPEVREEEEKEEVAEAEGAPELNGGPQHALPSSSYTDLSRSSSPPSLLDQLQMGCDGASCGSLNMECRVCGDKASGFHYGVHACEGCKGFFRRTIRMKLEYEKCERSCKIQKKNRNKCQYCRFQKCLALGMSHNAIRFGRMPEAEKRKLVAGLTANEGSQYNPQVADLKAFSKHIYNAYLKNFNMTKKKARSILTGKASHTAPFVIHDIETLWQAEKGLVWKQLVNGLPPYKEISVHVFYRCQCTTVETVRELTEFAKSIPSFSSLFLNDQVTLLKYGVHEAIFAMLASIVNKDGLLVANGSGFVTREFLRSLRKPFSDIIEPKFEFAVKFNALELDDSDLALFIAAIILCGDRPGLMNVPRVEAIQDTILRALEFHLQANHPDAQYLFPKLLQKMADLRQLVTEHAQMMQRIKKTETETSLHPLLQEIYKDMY
experimental_protocol: Agonist activity at human PPAR delta expressed in CV1 cells by GAL4 transactivation assay
Task for the reader: assign each of the following molecules its reported EC50.
One number for each entry, in nM.

O=C(O)C[C@@H]1CCc2cc(OCCCOc3ccc(-c4nc5c(s4)CCCC5)cc3)ccc21 ... 40

Now look at this entry.
Req: # assay system Peroxisome proliferator-activated receptor delta (Homo sapiens, UniProt Q03181): give EC50 of CCCc1cc(-c2nc3c(s2)CCCC3)ccc1OCCCOc1ccc2c(c1)CC[C@H]2CC(=O)O
Resp: 2.6
